Reference source: patent US9464064B2

tested.target: E. coli SSB-Cy5-dT15 complex (Escherichia coli)
Construct: purchased Promega
Sequence (P0AGE0 2-178, one chain of several): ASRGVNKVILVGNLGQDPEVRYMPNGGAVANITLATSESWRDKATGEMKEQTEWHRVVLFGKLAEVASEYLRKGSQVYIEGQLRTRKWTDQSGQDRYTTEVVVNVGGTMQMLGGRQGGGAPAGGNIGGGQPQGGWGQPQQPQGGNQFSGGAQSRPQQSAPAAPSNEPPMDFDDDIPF
experimental.protocol: Escherichia coli SSB Cy5-dT15 binding assay (fluorescence polarization)
condition.summary: read-out: SSB % Displaced @ 100 μM
result.type: inhibition at 100 µM
Write the figure, then the unit, nothing else.

// worked examples, inhibition at 100 µM included
sample.smiles: Cc1ccc2nc(-c3ccc4nc(-c5ccc(NC(=S)Nc6ccccc6)cc5)sc4c3)sc2c1S(=O)(=O)O.N
inhibition at 100 µM: 98%

sample.smiles: Cc1ccc2nc(-c3ccc4nc(-c5ccc(NC(=O)c6ccc(Cl)cc6)cc5)sc4c3)sc2c1S(=O)(=O)O
inhibition at 100 µM: 80%

Attention now shifts to the item below.
# input molecule: Cc1ccc2nc(-c3ccc4nc(-c5ccc(NC(=O)c6ccc(Cl)c(Cl)c6)cc5)sc4c3)sc2c1S(=O)(=O)O ; wanted: its inhibition at 100 µM
53%

----------
tested.target: scNS4A-NS3p (UniProt P26663)
Construct: fused on or other part: NS4A cofactor peptide, from the same polyprotein, fused to the NS3 protease fragment
Sequence (P26663 1027-1657): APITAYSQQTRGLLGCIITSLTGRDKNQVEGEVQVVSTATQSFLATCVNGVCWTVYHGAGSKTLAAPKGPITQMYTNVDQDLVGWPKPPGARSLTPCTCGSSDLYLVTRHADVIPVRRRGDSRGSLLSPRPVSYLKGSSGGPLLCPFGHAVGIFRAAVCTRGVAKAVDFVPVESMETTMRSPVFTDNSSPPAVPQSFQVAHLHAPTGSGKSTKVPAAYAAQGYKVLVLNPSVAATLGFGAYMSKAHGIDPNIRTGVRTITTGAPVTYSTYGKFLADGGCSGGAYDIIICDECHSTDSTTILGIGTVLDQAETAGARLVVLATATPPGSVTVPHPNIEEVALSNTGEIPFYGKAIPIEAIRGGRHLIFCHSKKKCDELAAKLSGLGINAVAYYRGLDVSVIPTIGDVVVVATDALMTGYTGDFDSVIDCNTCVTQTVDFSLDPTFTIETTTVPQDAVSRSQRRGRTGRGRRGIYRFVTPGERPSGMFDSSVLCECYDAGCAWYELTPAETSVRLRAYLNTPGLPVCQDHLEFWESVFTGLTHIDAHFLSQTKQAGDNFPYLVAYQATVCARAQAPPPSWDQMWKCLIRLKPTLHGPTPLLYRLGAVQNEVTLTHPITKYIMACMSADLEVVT
experimental.protocol: NS3 protease assay (ENZOLYTE 520), protease fragment
Format: biochemical, hepatitis C virus genotype 1b
condition.summary: read-out: Protease ScNS4a-NS3p IC50 (μM) ± SD; one set of assays
Would you mind telling me the reported IC50 of each entry?

sample.smiles: Cc1ccc2nc(-c3ccc4nc(-c5ccc(NC(=O)c6ccc7ccccc7c6)cc5)sc4c3)sc2c1S(=O)(=O)O
result.type: IC50
recorded.measurement: > 100 µM
--
sample.smiles: Cc1ccc2nc(-c3ccc4nc(-c5ccc(N)cc5)sc4c3)sc2c1S(=O)(=O)O
result.type: IC50
recorded.measurement: > 100 µM
--
sample.smiles: Cc1ccc2nc(-c3ccc4nc(-c5ccc(NC(=O)c6ccc(F)cc6)cc5)sc4c3)sc2c1S(=O)(=O)O.N
result.type: IC50
recorded.measurement: > 100 µM

# input compound: Cc1ccc2nc(-c3ccc4nc(-c5ccc(NC(=O)c6cc(C(F)(F)F)ccc6F)cc5)sc4c3)sc2c1S(=O)(=O)O ; wanted: its IC50
> 100 µM

----------
tested.target: HCV NS3 helicase NS3h_1b(con1) (Hepatitis C virus genotype 1b, UniProt Q9WMX2)
Construct: truncated C-terminally His-tagged NS3 proteins lacking the N-terminal protease, called NS3h; His-tag (C); made in house
Sequence (Q9WMX2 1192-1657): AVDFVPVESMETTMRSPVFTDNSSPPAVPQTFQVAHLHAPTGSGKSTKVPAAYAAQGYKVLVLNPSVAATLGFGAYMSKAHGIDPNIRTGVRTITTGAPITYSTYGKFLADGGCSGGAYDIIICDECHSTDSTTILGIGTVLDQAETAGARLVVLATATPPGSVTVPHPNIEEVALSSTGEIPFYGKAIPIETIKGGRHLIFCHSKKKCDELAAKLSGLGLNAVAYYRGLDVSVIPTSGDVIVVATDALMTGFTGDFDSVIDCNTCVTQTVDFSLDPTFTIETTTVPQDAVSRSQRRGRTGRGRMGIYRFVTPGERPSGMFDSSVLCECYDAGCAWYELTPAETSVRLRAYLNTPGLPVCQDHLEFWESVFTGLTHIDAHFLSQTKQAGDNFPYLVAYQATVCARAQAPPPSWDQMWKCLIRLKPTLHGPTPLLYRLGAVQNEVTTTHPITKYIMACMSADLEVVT
experimental.protocol: MBHA screen of NCI mechanistic set library at 20 μM (percent inhibition, compound interference)
Format: biochemical
condition.summary: compounds at 20 μM, MBHA with DNA substrate; assay interference calculated with Equation 2
Would you mind telling me the reported Int.* (Ratio) (Interference) of each entry?
One number for each entry, in Ratio.

molecule: Cc1cn(C2CC(O)C(CO)O2)c(=O)[nH]c1=O (centres unmarked) [Compound 21548]
result.type: Int.* (Ratio) (Interference)
recorded.measurement: 0.98
--
molecule: CN(C)CCOC1(Cc2ccc(Cl)cc2Cl)CCC(C(C)(C)C)CC1.Cl (centres unmarked) [Compound 670224]
result.type: Int.* (Ratio) (Interference)
recorded.measurement: 0.88
--
molecule: Cc1ccc(S(=O)(=O)c2ccccc2[N+](=O)[O-])cc1 [Compound 627708]
result.type: Int.* (Ratio) (Interference)
recorded.measurement: 1.03
--
molecule: CO[C@H](C(=O)[C@@H](O)[C@@H](C)O)[C@@H]1Cc2cc3cc(O[C@H]4C[C@@H](O[C@H]5C[C@@H](O)[C@H](O)[C@@H](C)O5)[C@H](O)[C@@H](C)O4)c(C)c(O)c3c(O)c2C(=O)[C@H]1O[C@H]1C[C@@H](O[C@H]2C[C@@H](O[C@H]3C[C@](C)(O)[C@H](O)[C@@H](C)O3)[C@@H](O)[C@@H](C)O2)[C@H](O)[C@@H](C)O1 [Compound 24559]
result.type: Int.* (Ratio) (Interference)
recorded.measurement: 0.91
--
molecule: CC1=CC(=O)c2cccc(NC3=NCCO3)c21 [Compound 664331]
result.type: Int.* (Ratio) (Interference)
recorded.measurement: 1.03

Please supply Int.* (Ratio) (Interference) for each of the following items, keeping them in order.
1. O=C(NC1=C(Cl)C(=O)c2ccccc2C1=O)C(=O)C(C(=O)c1ccc2ccccc2c1)C1OC(=O)c2ccccc21 (centres unmarked) [Compound 641233]
2. C[C@H](CN1CC(=O)NC(=O)C1)N1CC(=O)NC(=O)C1 [Compound 169779]
3. COc1ccc(OC)c(-c2cc(=O)c3c(OC)c(OC)c(OC)c(OC)c3o2)c1 [Compound 71300]
4. O=C1NC(=S)NC(=O)C1C(=O)Nc1ccccc1 [Compound 336628]

0.91
1.12
1.12
0.90

Please supply Int.* (Ratio) (Interference) for each of the following items, keeping them in order.
1. CC1=CC(=C(c2ccc(N)cc2)c2ccc(N)cc2)C=CC1=N.Cl [Compound 93739]
2. O=C1C(=O)c2ccccc2C(O)=C1CC=C(Cl)Cl [Compound 126771]
3. c1ccc(-c2cccc(-c3ccccn3)n2)nc1 [Compound 3905]
4. COc1ccc(C(=O)/C(Br)=C\C(=O)O)cc1 [Compound 104801]
5. CC(C)C1(Cl)CCC2C3(C)CCCC(C)(C(=O)O)C3CC(Cl)C2(Cl)C1Cl (centres unmarked) [Compound 2979]
6. CCOC(OC1=C(C#N)CCC1)C(C)[Se]c1ccccc1 (centres unmarked) [Compound 646189]

[0.81, 1.12, 0.92, 1.00, 1.00, 0.92]

Please supply Int.* (Ratio) (Interference) for each of the following items, keeping them in order.
1. O=C1/C(=C/c2ccc([N+](=O)[O-])cc2)Sc2scc(-c3cccc([N+](=O)[O-])c3)[n+]21.[Cl-] [Compound 657598]
2. CCC1CN2CCc3cc(OC)c(OC)cc3C2CC1CC1c2cc(OC)c(OC)cc2CCN1C(=O)C(Cc1c[nH]c2ccccc12)NC(=O)OC(C)(C)C (centres unmarked) [Compound 109350]
3. N#CCCN(CCC#N)c1ccc(C=Nc2ccc(F)cc2)cc1 [Compound 620277]
4. COc1cc2c(c3oc4cccc(O)c4c(=O)c13)[C@@H]1C=CO[C@@H]1O2 [Compound 204985]
5. Cc1nc(N)nc(N)c1-c1ccc(Cl)c(Cl)c1 [Compound 7364]
6. CC(C)(C)NCCC(O)c1cc(C(F)(F)F)nc2c(C(F)(F)F)cccc12.O=P(O)(O)O (centres unmarked) [Compound 305819]
7. CC(=O)O[C@@H]1C[C@H]2O[C@@H]3C=C(C)CC[C@]3(C)[C@]1(C)[C@]21CO1 [Compound 267033]
8. COC1/C=C/OC2(C)Oc3c(C)c(O)c4c(c3C2=O)C(=O)C=C(NC(=O)/C(C)=C\C=C\C(C)C(OC=O)C(C)C(O)C(C)C(OC(C)=O)C1C)C4=O (centres unmarked) [Compound 239375]

1. 0.94
2. 0.92
3. 0.93
4. 1.05
5. 0.86
6. 0.99
7. 1.04
8. 0.90
